Assay: Pharmacokinetic profile evaluation in mice
Format: in vivo, CD-1 mice
Conditions: CD-1; mouse, oral administration at 10 mg/kg, plasma
Text: Example C: Pharmacokinetic Profile Evaluation Three CD-1 mice of SPF. […] Standard set of parameters including Area Under the Curve (AUC(0-t)), maximum plasma concentration (Cmax), elimination half-life (T1/2) will be calculated using noncompartmental analysis modules in FDA certified pharmacokinetic program Phoenix WinNonlin 7.0 (Pharsight, USA).
// bucketize AUC(0-t): class 0 = under 20 µg·h/mL, class 1 = from 20 µg·h/mL up to 100 µg·h/mL, class 2 = 100 µg·h/mL and over

Reference set, count: 5
1. CNS(=O)(=O)CCc1cc(-c2ccc(C(F)(F)F)cc2)cc2cn(C)nc12	class 0
2. Cn1cc2cc(Oc3ccc(C(F)(F)F)cc3)cc([C@@H]3C[C@H]3C(=O)N3CC[C@H](O)[C@@H](O)C3)c2n1 (single isomer, unassigned) [Example 75a]	class 0
3. Cn1cc2cc(Oc3ccc(C(F)(F)F)cc3)cc(C3C[C@H]3C(=O)O)c2n1 (mixture of isomers)	class 2
4. Cn1cc2cc(Oc3ccc(C(F)(F)F)cc3)cc([C@H]3C[C@@H]3C(=O)N3CC(O)C3)c2n1 (single isomer, unassigned) [Example 58b]	class 0
5. CNS(=O)(=O)CCc1cc(Oc2ccc(C(F)(F)F)cc2)cc2cn(C)nc12	class 0

Exam item: assign Cn1cc2cc(-c3ccc(C(F)(F)F)cc3)cc(C3C[C@H]3C(=O)O)c2n1 (mixture of isomers) to the correct category.
class 2

Values from patent US12103915B2
